Below: a set of entries, each annotated with reported MIC.
- Test system: P. aeruginosa M-120
- Type: cell-based
- REPORTED CONDITIONS: M-120, 16 h
Positions of bridges follow the written chain, without caps; N, C: chain ends. Non-standard residues stand in square brackets, D forms with d. Residues, ends and D or L forms follow the SMILES beside them. *: point of attachment. Octanoyl(7-Me) = CC(C)CCCCCC(=O)*; dOrn = NCCC[C@@H](N)C(=O)O; Orn = NCCC[C@H](N)C(=O)O; Dap = NC[C@H](N)C(=O)O

Examples with their reported MIC follow.
{"COMPOUND": "CCC(C)CCC(=O)N[C@@H](CC(N)=O)C(=O)N[C@@H](Cc1ccc(O)cc1)C(=O)N[C@@H](Cc1c[nH]c2ccccc12)C(=O)N[C@@H](CCCN)C(=O)N[C@H](CCCN)C(=O)NCC(=O)N[C@@H](CCCN)C(=O)N[C@H](Cc1c[nH]c2ccccc12)C(=O)N[C@H]1C(=O)N[C@H]([C@H](C)CC)C(=O)NCC(=O)N[C@H](CO)C(=O)O[C@H]1C (single isomer, unassigned) [ent-Brev (ent-1), ent-brevicidine]", "TARGET SYSTEM": "P. aeruginosa M-120", "MIC": "16 µg/mL"}
{"COMPOUND": "CC[C@@H](C)[C@H]1NC(=O)[C@H](NC(=O)[C@@H](Cc2c[nH]c3ccccc23)NC(=O)[C@H](CCCN)NC(=O)CNC(=O)[C@@H](CCCN)NC(=O)[C@H](CCCN)NC(=O)[C@H](Cc2c[nH]c3ccccc23)NC(=O)[C@H](Cc2ccc(O)cc2)NC(=O)[C@H](CO)NC(=O)CCCCCC(C)C)[C@H](C)OC(=O)CNC(=O)CNC(=O)[C@@H](CC(N)=O)NC1=O (single isomer, unassigned) [ent-Lat (ent-2), ent-laterocidine]", "TARGET SYSTEM": "P. aeruginosa M-120", "MIC": "16 µg/mL"}
{"COMPOUND": "CCC(C)CCC(=O)N[C@H](CC(N)=O)C(=O)N[C@H](Cc1ccc(O)cc1)C(=O)N[C@H](Cc1c[nH]c2ccccc12)C(=O)N[C@H](CCCN)C(=O)N[C@@H](CCCN)C(=O)NCC(=O)N[C@H](CCCN)C(=O)N[C@@H](Cc1c[nH]c2ccccc12)C(=O)N[C@@H]1C(=O)N[C@@H]([C@@H](C)CC)C(=O)NCC(=O)N[C@@H](CO)C(=O)O[C@@H]1C (stereo partly shown)", "TARGET SYSTEM": "P. aeruginosa M-120", "MIC": "2 to 4 µg/mL"}

Note: attention shifts to another entry.
CC[C@H](C)[C@@H]1NC(=O)[C@@H](NC(=O)[C@H](Cc2c[nH]c3ccccc23)NC(=O)[C@@H](CCCN)NC(=O)CNC(=O)[C@H](CCCN)NC(=O)[C@@H](CCCN)NC(=O)[C@@H](Cc2c[nH]c3ccccc23)NC(=O)[C@@H](Cc2ccc(O)cc2)NC(=O)[C@@H](CO)NC(=O)CCCCCC(C)C)CNC(=O)CNC(=O)CNC(=O)[C@H](CC(N)=O)NC1=O [Dap9-Lat (6), Dap9-laterocidamide] ({Octanoyl(7-Me)}-[dS][dY][dW][dOrn][Orn]G[dOrn]W[Dap]INGG; lactam 9-C) tested on P. aeruginosa M-120 gave MIC: 1 to 2 µg/mL
